In this section, each of the molecules is paired with its reported pIC50.
tested on: 922993-354-T-J3-PDC complex spheroids, viability; assay: Anticancer human tumor 922993-354-T-J3-PDC patient-derived endometrial carcinoma cell line growth inhibition [GQUAD]; settings: curve of first compound; second compound 10 µM;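 note: spheroids exposed to compounds for seven days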
pIC50: −log10 of the molar value.

Which pIC50 is listed for COc1ccc([C@@H](O)c2cc(-c3ncnc4cc(N5CCOCC5)ccc34)c(F)cc2Cl)nn1 + CN(C)c1ccc(Nc2c3ccc(NC(=O)CCN4CCCC4)cc3nc3cc(NC(=O)CCN4CCCC4)ccc23)cc1 ?
< 5.00

Okay, and O=C(NO)c1cnc(N2CCN(S(=O)(=O)c3ccc4ccccc4c3)CC2)nc1 + CN(C)c1ccc(Nc2c3ccc(NC(=O)CCN4CCCC4)cc3nc3cc(NC(=O)CCN4CCCC4)ccc23)cc1 ?
6.16

Further cases:
Suppose we examine the molecule Cc1[nH]c2ccccc2c1CCNCc1ccc(/C=C/C(=O)NO)cc1 + Cc1[nH]c2ccc(F)cc2c1-c1nc2c3cccnc3c3ncccc3c2[nH]1 ; what pIC50 value has been reported?
< 6.50

Can you check O=c1[nH]cc(F)c(=O)[nH]1 + Cc1cnc(CNC(=O)c2c(=O)c3ccc(N4CCCN(C)CC4)nc3n3c2sc2ccccc23)cn1 next?
> 7.50

For Cc1[nH]c2ccccc2c1CCNCc1ccc(/C=C/C(=O)NO)cc1 + CN(C)c1ccc(Nc2c3ccc(NC(=O)CCN4CCCC4)cc3nc3cc(NC(=O)CCN4CCCC4)ccc23)cc1 then?
< 6.50
